# TARGET OF ASSAY: 3-alpha-hydroxysteroid dehydrogenase (Rattus norvegicus)
# Sequence (whole entry): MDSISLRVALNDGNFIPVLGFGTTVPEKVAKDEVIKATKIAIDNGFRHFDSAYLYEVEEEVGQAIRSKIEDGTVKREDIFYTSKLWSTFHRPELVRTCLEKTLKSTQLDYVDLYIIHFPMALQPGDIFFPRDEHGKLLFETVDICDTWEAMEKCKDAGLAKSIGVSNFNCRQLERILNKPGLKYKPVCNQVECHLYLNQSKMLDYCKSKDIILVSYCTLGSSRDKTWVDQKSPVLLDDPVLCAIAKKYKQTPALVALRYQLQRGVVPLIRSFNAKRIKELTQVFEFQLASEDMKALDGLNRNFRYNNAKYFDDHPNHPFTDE
# PROTOCOL DETAILS: Ratio of Vmax to Km for rat liver 3-alpha-HSD for formation of corresponding (S)-alcohol products
ASSAY ENDPOINT: log10(Ratio) (log10 of the value in µL/min)
Answers are given as log10 of Ratio in µL/min.

Find the recorded log10(Ratio) belonging to COc1ccc(C(C)=O)cc1 and report it. -0.01

Consider the compound shown here: CC(=O)c1ccc(C#N)cc1 What is its recorded log10(Ratio)? 3.97

What log10(Ratio) value was documented for this compound, CC(=O)c1ccc(N(C)C)cc1 ? -0.39

# get_value(readout='log10(Ratio)', item= CC(=O)c1ccc(Br)cc1 ) 1.49

Entry under review: CC(=O)c1ccccc1 . Reported log10(Ratio)? 1.69

Which value of log10(Ratio) has been reported for CC(=O)c1ccc([N+](=O)[O-])cc1 in the records? 4.79

Data request, read-out log10(Ratio), for CC(=O)c1ccc(C)cc1 0.86
